Assay: Cytotoxicity against BHK cells infected with Dengue virus replicon assessed as cell viability at 10 uM after 3 days by CellTiter 96 aqueous one solution cell proliferation assay relative to control
Assay type: cell-based, Mesocricetus auratus
Details: hamster, BHK cells infected with Dengue virus replicon; read-out: Activity
Quantity measured: viability at 72 h, 10 µM (%)

- Chemical smiles: "Cc1cn([C@H]2C[C@H](N=[N+]=[N-])[C@@H](CO)O2)c(=O)[nH]c1=O"
  Recorded measurement: 89

* * *

Each item that follows carries a reported inhibition at 10 µM.
Test system: West Nile virus
Assay: Antiviral activity against West Nile virus infected in BHK-WII RepRen1B cells assessed as inhibition of viral replication at 10 uM after 3 days by luciferase reporter gene assay relative to control
Type: functional
Details: 72 h

- Molecule: "Cc1cn([C@H]2C[C@H](NC(=O)c3c[nH]c4ccccc34)[C@@H](CO[Si](C)(C)C(C)(C)C)O2)c(=O)[nH]c1=O"
  Target desc: "West Nile virus"
  Unit name: "%"
  inhibition at 10 µM: 19
- Molecule: "Cc1cn([C@H]2C[C@H](n3nncc3-c3ccccc3)[C@@H](CO[Si](C)(C)C(C)(C)C)O2)c(=O)[nH]c1=O"
  Target desc: "West Nile virus"
  Unit name: "%"
  inhibition at 10 µM: 93
- Molecule: "Cc1cn([C@H]2C[C@H](NC(=O)c3cccc4ccccc34)[C@@H](CO[Si](C)(C)C(C)(C)C)O2)c(=O)[nH]c1=O"
  Target desc: "West Nile virus"
  Unit name: "%"
  inhibition at 10 µM: 37
- Molecule: "Cc1cn([C@H]2C[C@H](NC(=O)c3c4ccccc4cc4ccccc34)[C@@H](CO[Si](C)(C)C(C)(C)C)O2)c(=O)[nH]c1=O"
  Target desc: "West Nile virus"
  Unit name: "%"
  inhibition at 10 µM: 0
- Molecule: "Cc1cn([C@H]2C[C@H](n3nncc3-c3cccc4ccccc34)[C@@H](CO)O2)c(=O)[nH]c1=O"
  Target desc: "West Nile virus"
  Unit name: "%"
  inhibition at 10 µM: 3.3
- Molecule: "COc1ccc2cc(-c3cnnn3[C@H]3C[C@H](n4cc(C)c(=O)[nH]c4=O)O[C@@H]3COC3CCCCO3)ccc2c1 (stereo partly drawn)"
  Target desc: "West Nile virus"
  Unit name: "%"
  inhibition at 10 µM: 1
- Molecule: "COc1ccc2cc(-c3cnnn3[C@H]3C[C@H](n4cc(C)c(=O)[nH]c4=O)O[C@@H]3COC(C)=O)ccc2c1"
  Target desc: "West Nile virus"
  Unit name: "%"
  inhibition at 10 µM: 5.3
- Molecule: "Cc1cn([C@H]2C[C@H](N3C(=O)CSC3c3ccccc3)[C@@H](CO)O2)c(=O)[nH]c1=O (mixture of isomers)"
  Target desc: "West Nile virus"
  Unit name: "%"
  inhibition at 10 µM: 0

* * *

# pEC50 listing for each entry below
System: West Nile virus
Assay: Antiviral activity against West Nile virus infected in BHK-WII RepRen1B cells assessed as inhibition of viral replication after 3 days by luciferase reporter gene assay
Type: functional, organism-based
Settings: 72 h
pEC50: −log10 of the molar value.
Quantity measured: pEC50

- Compound: "Cc1cn([C@H]2C[C@H](NC(=O)C(c3ccccc3)(c3ccccc3)c3ccccc3)[C@@H](CO[Si](C)(C)C(C)(C)C)O2)c(=O)[nH]c1=O"
  Quantity measured: "pEC50"
  Recorded measurement: 5.00
- Compound: "Cc1cn([C@H]2C[C@H](n3nncc3C3CCCCC3)[C@@H](CO[Si](C)(C)C(C)(C)C)O2)c(=O)[nH]c1=O"
  Quantity measured: "pEC50"
  Recorded measurement: 5.15
- Compound: "Cc1cn([C@H]2C[C@H](N3C(=O)CSC3c3ccc4[nH]ccc4c3)[C@@H](CO[Si](C)(C)C(C)(C)C)O2)c(=O)[nH]c1=O (mixture of isomers)"
  Quantity measured: "pEC50"
  Recorded measurement: 5.47
- Compound: "Cc1cn([C@H]2C[C@H](n3nncc3-c3ccccc3)[C@@H](CO[Si](C)(C)C(C)(C)C)O2)c(=O)[nH]c1=O"
  Quantity measured: "pEC50"
  Recorded measurement: 5.08
- Compound: "Cc1cn([C@H]2C[C@H](NC(=O)c3cccc4ccccc34)[C@@H](CO[Si](C)(C)C(C)(C)C)O2)c(=O)[nH]c1=O"
  Quantity measured: "pEC50"
  Recorded measurement: 4.48
- Compound: "Cc1cn([C@H]2C[C@H](N3C(=O)CSC3c3c4ccccc4cc4ccccc34)[C@@H](CO[Si](C)(C)C(C)(C)C)O2)c(=O)[nH]c1=O (mixture of isomers)"
  Quantity measured: "pEC50"
  Recorded measurement: 5.05
- Compound: "Cc1cn([C@H]2C[C@H](NC(=O)CCCCc3ccc(F)cc3)[C@@H](CO[Si](C)(C)C(C)(C)C)O2)c(=O)[nH]c1=O"
  Quantity measured: "pEC50"
  Recorded measurement: 4.82
